B1: library; a variant is named by its letters at N, in order (parent)
chain: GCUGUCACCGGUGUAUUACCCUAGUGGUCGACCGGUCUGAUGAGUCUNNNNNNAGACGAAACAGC

- Variants of: B1
- assayRemarks: normalized RNA/DNA level with ligand (relative to sTRSVctl = 100) (log10 (% of sTRSVctl)); ligand: hypoxanthine (xanthine aptamer); higher = less ribozyme self-cleavage, higher mRNA level
- experimentalSetup: ligand concentration (+) RNA-Seq: 5 mM, HEK293T, reporter: mCherry (pCS4076), ligand present: yes
The reader will find reported normalized RNA/DNA level with ligand (log10) values listed item by item below.
observationType: normalized RNA/DNA level with ligand (log10)

{"querySequence": "GCUGUCACCGGUGUAUUACCCUAGUGGUCGACCGGUCUGAUGAGUCUAGAUAUAGACGAAACAGC [AGAUAU]", "recordedMeasurement": 1.88}
{"querySequence": "GCUGUCACCGGUGUAUUACCCUAGUGGUCGACCGGUCUGAUGAGUCUACGGCGAGACGAAACAGC [ACGGCG]", "recordedMeasurement": 1.91}
{"querySequence": "GCUGUCACCGGUGUAUUACCCUAGUGGUCGACCGGUCUGAUGAGUCUGACGGCAGACGAAACAGC [GACGGC]", "recordedMeasurement": 1.95}
{"querySequence": "GCUGUCACCGGUGUAUUACCCUAGUGGUCGACCGGUCUGAUGAGUCUACCGGGAGACGAAACAGC [ACCGGG]", "recordedMeasurement": 1.94}
{"querySequence": "GCUGUCACCGGUGUAUUACCCUAGUGGUCGACCGGUCUGAUGAGUCUUAUUGUAGACGAAACAGC [UAUUGU]", "recordedMeasurement": 1.92}
{"querySequence": "GCUGUCACCGGUGUAUUACCCUAGUGGUCGACCGGUCUGAUGAGUCUCGUGUAAGACGAAACAGC [CGUGUA]", "recordedMeasurement": 1.93}
{"querySequence": "GCUGUCACCGGUGUAUUACCCUAGUGGUCGACCGGUCUGAUGAGUCUGUAUUAAGACGAAACAGC [GUAUUA]", "recordedMeasurement": 1.92}
{"querySequence": "GCUGUCACCGGUGUAUUACCCUAGUGGUCGACCGGUCUGAUGAGUCUGCGUGAAGACGAAACAGC [GCGUGA]", "recordedMeasurement": 1.82}
{"querySequence": "GCUGUCACCGGUGUAUUACCCUAGUGGUCGACCGGUCUGAUGAGUCUGCAUGCAGACGAAACAGC [GCAUGC]", "recordedMeasurement": 1.93}
{"querySequence": "GCUGUCACCGGUGUAUUACCCUAGUGGUCGACCGGUCUGAUGAGUCUCUCUAGAGACGAAACAGC [CUCUAG]", "recordedMeasurement": 1.9}
{"querySequence": "GCUGUCACCGGUGUAUUACCCUAGUGGUCGACCGGUCUGAUGAGUCUCGCGUAAGACGAAACAGC [CGCGUA]", "recordedMeasurement": 1.95}
{"querySequence": "GCUGUCACCGGUGUAUUACCCUAGUGGUCGACCGGUCUGAUGAGUCUGACCCGAGACGAAACAGC [GACCCG]", "recordedMeasurement": 1.89}
{"querySequence": "GCUGUCACCGGUGUAUUACCCUAGUGGUCGACCGGUCUGAUGAGUCUUUGGCCAGACGAAACAGC [UUGGCC]", "recordedMeasurement": 1.97}
{"querySequence": "GCUGUCACCGGUGUAUUACCCUAGUGGUCGACCGGUCUGAUGAGUCUUCCAGUAGACGAAACAGC [UCCAGU]", "recordedMeasurement": 1.96}
{"querySequence": "GCUGUCACCGGUGUAUUACCCUAGUGGUCGACCGGUCUGAUGAGUCUAUGUACAGACGAAACAGC [AUGUAC]", "recordedMeasurement": 1.89}
{"querySequence": "GCUGUCACCGGUGUAUUACCCUAGUGGUCGACCGGUCUGAUGAGUCUGGCAGCAGACGAAACAGC [GGCAGC]", "recordedMeasurement": 1.92}
{"querySequence": "GCUGUCACCGGUGUAUUACCCUAGUGGUCGACCGGUCUGAUGAGUCUCUGGAUAGACGAAACAGC [CUGGAU]", "recordedMeasurement": 1.94}
{"querySequence": "GCUGUCACCGGUGUAUUACCCUAGUGGUCGACCGGUCUGAUGAGUCUUAGAAUAGACGAAACAGC [UAGAAU]", "recordedMeasurement": 1.9}
{"querySequence": "GCUGUCACCGGUGUAUUACCCUAGUGGUCGACCGGUCUGAUGAGUCUGUCAAUAGACGAAACAGC [GUCAAU]", "recordedMeasurement": 1.92}
{"querySequence": "GCUGUCACCGGUGUAUUACCCUAGUGGUCGACCGGUCUGAUGAGUCUACGUCUAGACGAAACAGC [ACGUCU]", "recordedMeasurement": 1.95}
{"querySequence": "GCUGUCACCGGUGUAUUACCCUAGUGGUCGACCGGUCUGAUGAGUCUCUAGCUAGACGAAACAGC [CUAGCU]", "recordedMeasurement": 1.99}

The reported numbers originate from the supplement of paper PMC6757056.
